Consider the following molecules; for each one, report its Oat, Wild plant response rating.
System: oat, wild (wild oat, Avena fatua)
Experiment: Test C postemergence, wild oat
Assay type: in vivo
Conditions: 125 g ai/ha Postemergence; visual injury, 0 to 100 scale (0 no effect, 100 complete control)
Numbers only.

Completed entries (count: 3):
molecule: Cc1c(NS(=O)(=O)C(F)(F)F)cc(N2CCC(OCC3CCC3)C2=O)c(C)c1F (centres unmarked) [Compound 64]
readout type: Oat, Wild plant response rating
data value: 10
--
molecule: Cc1cc(C)c(N(COC(=O)C(C)(C)C)S(=O)(=O)C(F)(F)F)cc1N1CCC(OCC2CC2)C1=O (centres unmarked) [Compound 53]
readout type: Oat, Wild plant response rating
data value: 50
--
molecule: Cc1c(N2CCC(OC3CCC3)C2=O)cc(N(COC(=O)C(C)(C)C)S(=O)(=O)C(F)(F)F)c(C)c1C (centres unmarked) [Compound 51]
readout type: Oat, Wild plant response rating
data value: 30

Please supply Oat, Wild plant response rating for each of the following items, keeping them in order.
1. Cc1cc(C)c(N2CCC(OCC3CCC3(F)F)C2=O)cc1NS(=O)(=O)C(F)(F)F (centres unmarked) [Compound 52]
2. Cc1c(NS(=O)(=O)C(F)(F)F)cc(N2CCC(OC3CC3)C2=O)c(C)c1C (centres unmarked) [Compound 47]

60
60

----------
System: foxtail, giant (giant foxtail, Setaria faberi)
Assay: Test C preemergence, giant foxtail
Format: in vivo
Settings: 31 g ai/ha Preemergence; 0 is no effect, 100 is complete control
Description: […]
I'd be grateful if you could share measured Plant response rating (0 to 100 scale), Foxtail, Giant for these entries.
Answers are plain numbers.

Below, 3 compounds whose answers are already recorded.
compound: Cc1c(N2CCC(OC3CC3)C2=O)cc(N(COC(=O)C(C)(C)C)S(=O)(=O)C(F)(F)F)c(C)c1C (stereo not shown)
data value: 20
--
compound: Cc1cc(C)c(N2CCC(OCC3CCCO3)C2=O)cc1NS(=O)(=O)C(F)(F)F (stereo not shown)
data value: 20
--
compound: Cc1cc(C)c(N2CCC(OC3COC3)C2=O)cc1NS(=O)(=O)C(F)(F)F (stereo not shown)
data value: 90

Count: 5. Required value per item: Plant response rating (0 to 100 scale), Foxtail, Giant.
1. Cc1cc(Cl)c(N(COC(=O)C(C)(C)C)S(=O)(=O)C(F)(F)F)cc1N1CCC(OC2CC2)C1=O (stereo not shown)
2. Cc1cc(C)c(N2CCC(OCC3CCC3(F)F)C2=O)cc1NS(=O)(=O)C(F)(F)F (stereo not shown)
3. Cc1cc(C)c(N2CC/C(=N\O)C2=O)cc1NS(=O)(=O)C(F)(F)F
4. Cc1cc(C)c(N2CCC(OCC3CC3(F)F)C2=O)cc1NS(=O)(=O)C(F)(F)F (stereo not shown)
5. CC#CCOC1CCN(c2cc(NS(=O)(=O)C(F)(F)F)c(C)cc2C)C1=O (stereo not shown)

1: 70; 2: 90; 3: 90; 4: 100; 5: 100

Give Plant response rating (0 to 100 scale), Foxtail, Giant for each listed item.
1. C=C(C)COC1CCN(c2cc(NS(=O)(=O)C(F)(F)F)c(C)cc2C)C1=O (stereo not shown)
2. CCOC(=O)N(c1cc(N2CCC(OC3CC3)C2=O)c(C)cc1C)S(=O)(=O)C(F)(F)F (stereo not shown)
3. Cc1c(NS(=O)(=O)C(F)(F)F)cc(N2CCC(OC3CC3)C2=O)c(C)c1C (stereo not shown)
4. CCCC(=O)OCN(c1cc(N2CCC(OC3CC3)C2=O)c(C)cc1C)S(=O)(=O)C(F)(F)F (stereo not shown)
5. Cc1cc(C)c(N(COC(=O)C(C)(C)C)S(=O)(=O)C(F)(F)F)cc1N1CCC(OCC2CC(F)(F)C2)C1=O (stereo not shown)
6. Cc1c(N2CCC(OC3CCC3)C2=O)cc(N(C(=O)OCC(C)C)S(=O)(=O)C(F)(F)F)c(C)c1C (stereo not shown)

100
0
100
90
0
30

Respectfully, I request Plant response rating (0 to 100 scale), Foxtail, Giant for each entry included below.
1. Cc1c(N2CCC(OC3CC3)C2=O)cc(N(COC(=O)C(C)(C)C)S(=O)(=O)C(F)(F)F)c(C)c1F (stereo not shown)
2. CC(=O)N(c1cc(N2CCC(OC3CC3)C2=O)c(C)cc1C)S(=O)(=O)C(F)(F)F (stereo not shown)

[20, 90]
